- test target: Cbl-b (Homo sapiens (Human), UniProt Q13191)
- Sequence (Q13191 40-426): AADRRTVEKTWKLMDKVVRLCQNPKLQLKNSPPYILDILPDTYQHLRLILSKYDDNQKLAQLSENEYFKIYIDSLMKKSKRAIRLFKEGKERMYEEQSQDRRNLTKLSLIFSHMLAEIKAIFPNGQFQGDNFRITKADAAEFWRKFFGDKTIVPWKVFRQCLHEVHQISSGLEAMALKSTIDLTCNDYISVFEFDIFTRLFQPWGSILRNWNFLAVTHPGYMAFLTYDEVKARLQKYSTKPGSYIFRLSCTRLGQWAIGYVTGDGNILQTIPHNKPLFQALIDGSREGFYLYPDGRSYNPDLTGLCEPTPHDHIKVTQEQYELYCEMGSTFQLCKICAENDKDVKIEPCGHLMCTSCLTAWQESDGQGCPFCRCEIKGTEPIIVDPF
- measurement description: Cbl-b LCK Ub TR-FRET assay (Cbl-b Lck HTRF)
- Format: biochemical
- recorded conditions: Cbl-b LCK Ub TR-FRET
pIC50: −log10 of the molar value.
measured metric: pIC50

[A] Cn1cnnc1[C@]1(c2cccc(N3Cc4c(cc(CNC5(C)CCC5)cc4C(F)(F)F)C3=O)c2)C[C@@H](OC(F)F)C1
[B] COC[C@H]1C[C@@](c2cccc(N3Cc4c(cc(CNC5(C)CCC5)cc4C(F)(F)F)C3=O)c2)(c2nncn2C)C1
[C] Cn1cnnc1C(c1cccc(N2Cc3c(cc(CNC4(C)CCC4)cc3C(F)(F)F)C2=O)c1)[C@H]1C[C@H](Cl)C1 (single isomer, unassigned) [Compound 355]
[D] C[C@@H](c1cccc(N2Cc3c(cc(CNC4(C)CCC4)cc3C(F)(F)F)C2=O)c1)c1nncn1C (single isomer, unassigned)
Ask: Rank the listed compounds by pIC50, largest first. # output: labels, in the requested order
Result: A, B, C, D

----------
- test target: Cbl-b (Homo sapiens (Human), UniProt Q13191)
- measurement description: Cbl-b LCK Ub TR-FRET assay (Cbl-b Lck HTRF)
- Assay type: biochemical
- recorded conditions: Cbl-b LCK Ub TR-FRET, Example 121
pIC50: −log10 of the molar value.
measured metric: pIC50

Some entries whose results are on file:
[[record]]
compound = "CO[C@H]1C[C@](c2cccc(N3Cc4c(cc(CNCC5(CO)CC6CC6C5)cc4C(F)(F)F)C3=O)c2)(c2nncn2C)C1 (stereo partly drawn) [Compound 509]"
endpoint_result = 7.80

[[record]]
compound = "CCCNCc1cc2c(c(C(F)(F)F)c1)CN(c1cccc([C@]3(c4nncn4C)C[C@H](OC)C3)c1)C2=O [Compound 511]"
endpoint_result = 7.92

[[record]]
compound = "Cn1cnnc1[C@@H](c1cccc(N2Cc3c(cc([C@H](NC4(C)CCC4)C4CC4)cc3C(F)(F)F)C2=O)c1)C1COC1 (single isomer, unassigned) [Compound 431]"
endpoint_result = 8.28


[P] CO[C@H]1C[C@](c2cccc(N3Cc4c(cc(CN[C@]5(C)C[C@H](O)C5)cc4C(F)(F)F)C3=O)c2)(c2nncn2C)C1 [Compound 484]
[Q] Cn1cnnc1[C@@H](c1cccc(N2Cc3c(cc([C@H](NC4(C)CCC4)C4CCC4)cc3C(F)(F)F)C2=O)c1)C1COC1 (single isomer, unassigned) [Compound 432]
Ask: Between the two listed entries P and Q , which has its pIC50 at the higher number? Use the label to indicate which entry you chose.
Result: Q
(Q: 8.26, P: 7.59)

----------
- test target: Cbl-b (Homo sapiens (Human), UniProt Q13191)
- measurement description: Cbl-b LCK Ub TR-FRET assay (Cbl-b Lck HTRF)
- Assay type: biochemical
- recorded conditions: Cbl-b LCK Ub TR-FRET, Example 121
measured metric: IC50 (nM)

[[record]]
compound = "CO[C@H]1C[C@](c2cccc(N3Cc4c(cc(CNCC5CCC5)cc4C(F)(F)F)C3=O)c2)(c2nncn2C)C1 [Compound 416]"
unit_name = "nM"
endpoint_result = 7.5

[[record]]
compound = "Cn1cnnc1[C@H](c1cccc(N2Cc3c(cc(CNC4(C)CCC4)cc3C(F)(F)F)C2=O)c1)[C@@H]1CCS(=O)(=O)C1 (single isomer, unassigned) [Compound 439]"
unit_name = "nM"
endpoint_result = 14000


[A] Cn1cnnc1[C@H](c1cc(Cl)cc(N2Cc3c(cc(CNC4(C)CCC4)cc3C(F)(F)F)C2=O)c1)C1COC1 (single isomer, unassigned) [Compound 409]
[B] CO[C@H]1C[C@](c2cccc(N3Cc4c(cc(CN[C@@H]5C[C@H]5C(C)(F)F)cc4C(F)(F)F)C3=O)c2)(c2nncn2C)C1 (single isomer, unassigned) [Compound 506]
Ask: When their IC50 values are compared, which is larger, A or B ? Pick one; state its label.
Result: A

[I] CO[C@H]1C[C@](c2cccc(N3Cc4c(cc(CN5CC(O)C5)cc4C(F)(F)F)C3=O)c2)(c2nncn2C)C1 [Compound 422]
[II] CO[C@H]1C[C@](c2cccc(N3Cc4c(cc(CNC5CC(C)(F)C5)cc4C(F)(F)F)C3=O)c2)(c2nncn2C)C1 (stereo partly drawn) [Compound 497]
Ask: Select the item whose IC50 value is smaller, choosing between I and II . Please reply using the label of the selected record.
Result: II
